System: PC-9
test name: CCK8 cell viability assay, PC-9
Format: cell-based, Human
details: PC9, 20 µM, 48 h, CCK8; control = 100%
Decision: Cell viability (100%) beneath 50% gives YES; Cell viability (100%) meeting or exceeding 50% gives NO.

[
  {
    "compound": "CCOc1ccc(-n2cc(-c3cccc(NC(=O)c4cn5c(c(OC)c4=O)C(=O)N4[C@H](C)CCO[C@H]4C5)c3)nn2)cc1 [Compound 9 h]",
    "target system": "PC-9",
    "class assignment": "NO"
  },
  {
    "compound": "COc1ccc(-n2cc(-c3cccc(NC(=O)c4cn5c(c(OC)c4=O)C(=O)N4C(C)CCOC4C5)c3)nn2)cc1 (stereo not drawn) [Compound 9x]",
    "target system": "PC-9",
    "class assignment": "NO"
  },
  {
    "compound": "COc1c2n(cc(C(=O)Nc3cccc(-c4cn(Cc5ccccc5C)nn4)c3)c1=O)CC1OCCC(C)N1C2=O (stereo not drawn) [Compound 10 g]",
    "target system": "PC-9",
    "class assignment": "NO"
  },
  {
    "compound": "COc1c2n(cc(C(=O)Nc3cccc(-c4cn(-c5cccc(C(F)(F)F)c5)nn4)c3)c1=O)C[C@@H]1OCC[C@@H](C)N1C2=O [Compound 9p]",
    "target system": "PC-9",
    "class assignment": "YES"
  },
  {
    "compound": "COc1c2n(cc(C(=O)Nc3cccc(-c4cn(-c5ccccc5Cl)nn4)c3)c1=O)C[C@@H]1OCC[C@@H](C)N1C2=O [Compound 9v]",
    "target system": "PC-9",
    "class assignment": "YES"
  }
]
